# Tested on: HCV 1a-H77 subgenomic replicon
# test: microbe, parasite or virus in culture
# Format: cell-based, HCV genotype 1a
# assay_conditions: Hepatitis C virus, stable replicon, strain 1a H77, 5% FBS, no human plasma; read-out: 1a H77 5% FBS EC50
Please respond with reported EC50 for every item in the list.
Number in nM, nothing else.

For the compound `CS(=O)(=O)N(CCc1ccccc1)c1cc2oc(-c3ccc(F)cc3)c(-c3ncc[nH]3)c2cc1C1CC1` , give its reported EC50. 102

In one line, give reported EC50 of the entry `Cc1c[nH]c(-c2c(-c3ccc(F)cc3)oc3cc(N(CCO)S(C)(=O)=O)c(C4CC4)cc23)n1` . 163

Please give measured EC50 of the following entry: `CS(=O)(=O)N(CCN1CCOCC1)c1cc2oc(-c3ccc(F)cc3)c(-c3ncc[nH]3)c2cc1C1CC1` 21.8

Give recorded EC50. `CS(=O)(=O)CCCCN(c1cc2oc(-c3ccc(Nc4ccccc4)cc3)c(-c3ncc[nH]3)c2cc1C1CC1)S(C)(=O)=O` 2.1

Please report EC50 for the following compound: `CC(C)(O)CCN(c1cc2oc(-c3ccc(F)cc3)c(C3=NOCCN3)c2cc1C1CC1)S(C)(=O)=O` 12.6

Output EC50 of `Cn1cnc2ccc(-c3ncc(CN(c4ccc5c(-c6ncc[nH]6)c(-c6ccccc6)oc5c4)S(C)(=O)=O)s3)cc21` 108

Provide one value: measured EC50 of `CC(C)(C#N)CCCCN(c1cc2oc(-c3ccc(F)cc3)c(C3=NOCCN3)c2cc1C1CC1)S(C)(=O)=O` 9.5

Given CS(=O)(=O)N(CC(O)CO)c1cc2oc(-c3ccc(F)cc3)c(-c3ncc[nH]3)c2cc1C1CC1 (stereo not shown) , respond with its EC50. 83.2

Please give measured EC50 of the following entry: `CN(C)C(=O)CCCN(c1cc2oc(-c3ccc(F)cc3)c(-c3ncc[nH]3)c2cc1C1CC1)S(C)(=O)=O` 24.1

Fill in reported EC50 for this entry: `CS(=O)(=O)N(Cc1cnc(-c2ccc3[nH]ccc3c2)s1)c1cc2oc(-c3ccc(F)cc3)c(-c3ncc[nH]3)c2cc1C1CC1` 41.6

Given `CC(C)(O)CCCN(c1cc2oc(-c3ccc(F)cc3)c(-c3ncc[nH]3)c2cc1C1CC1)S(C)(=O)=O` , respond with its EC50. 7.7

Fill in reported EC50 for this entry: `CS(=O)(=O)N(CCN1CCCC1)c1cc2oc(-c3ccc(F)cc3)c(-c3ncc[nH]3)c2cc1C1CC1` 205

Tell us which EC50 value is on record for `CS(=O)(=O)N(CCCc1noc(=O)[nH]1)c1cc2oc(-c3ccc(F)cc3)c(-c3ncc[nH]3)c2cc1C1CC1` 79

Determine its reported EC50: `CS(=O)(=O)N(CCCc1nsc(=O)[nH]1)c1cc2oc(-c3ccc(F)cc3)c(C3=NOCCN3)c2cc1C1CC1` 69.7

Provide measured EC50 value, entry: `CS(=O)(=O)N(CCCC(F)(F)F)c1cc2oc(-c3ccc(F)cc3)c(C3=NOCCN3)c2cc1C1CC1` 22

Annotate the compound CS(=O)(=O)N(CCC1CCS(=O)(=O)C1)c1cc2oc(-c3ccc(F)cc3)c(C3=NOCN3)c2cc1C1CC1 (stereo not shown) with its measured EC50. 8.8

Please report the measured EC50 for `CS(=O)(=O)N(CCCn1cccc1)c1cc2oc(-c3ccc(F)cc3)c(C3=NOCCN3)c2cc1C1CC1` 19.4

Answer with the recorded EC50 of `CS(=O)(=O)Nc1cc2oc(-c3ccc(F)cc3)c(C3=NOCN3)c2cc1C1CC1` only. 809

Specify EC50 for `CS(=O)(=O)N(CCN1CCCC1)c1cc2oc(-c3ccc(F)cc3)c(C3=NOCCN3)c2cc1C1CC1` and stop. 161

// Input: `C=CCN(c1cc2oc(-c3ccc(F)cc3)c(-c3ncc[nH]3)c2cc1C1CC1)S(C)(=O)=O` . Output its EC50 only. 35.2

Answer with reported EC50 of `CC(=O)OCCCCCN(c1cc2oc(-c3ccc(F)cc3)c(-c3ncc[nH]3)c2cc1C1CC1)S(C)(=O)=O` 4.5

Return EC50 (reported value) for this compound: `CS(=O)(=O)N(CCCCO)c1cc2oc(-c3ccc(F)cc3)c(-c3ncc[nH]3)c2cc1C1CC1` 3.19

Please indicate EC50 recorded for `CS(=O)(=O)N(CCCN1CCOCC1)c1cc2oc(-c3ccc(F)cc3)c(C3=NOCCN3)c2cc1C1CC1` 25.3

Please report the measured EC50 for `CS(=O)(=O)NCCCN(c1cc2oc(-c3ccc(F)cc3)c(-c3ncc[nH]3)c2cc1C1CC1)S(C)(=O)=O` 11.2

Item `CS(=O)(=O)N(CCCCCO)c1cc2oc(-c3ccc(F)cc3)c(C3=NOCN3)c2cc1C1CC1` : provide EC50 8.9

Give me measured EC50, please, for this compound: `CS(=O)(=O)N(Cc1cnc(-c2ccc3[nH]ccc3c2)s1)c1ccc2c(-c3ncc[nH]3)c(-c3ccccc3)oc2c1` 230

Specify measured EC50 for `CCCC/C=C/c1ccc(-c2oc3cc(N(CCCCS(C)(=O)=O)S(C)(=O)=O)c(C4CC4)cc3c2-c2ncc[nH]2)cc1` . 1.8

# return recorded EC50 for input `CS(=O)(=O)N(CN1C(=O)c2ccccc2C1=O)c1cc2oc(-c3ccc(F)cc3)c(-c3ncc[nH]3)c2cc1C1CC1` 2630

Ref: patent US20160355530A1
